Target: Cyclin-dependent kinase 11B (Homo sapiens, UniProt P21127)
Sequence (P21127 whole entry): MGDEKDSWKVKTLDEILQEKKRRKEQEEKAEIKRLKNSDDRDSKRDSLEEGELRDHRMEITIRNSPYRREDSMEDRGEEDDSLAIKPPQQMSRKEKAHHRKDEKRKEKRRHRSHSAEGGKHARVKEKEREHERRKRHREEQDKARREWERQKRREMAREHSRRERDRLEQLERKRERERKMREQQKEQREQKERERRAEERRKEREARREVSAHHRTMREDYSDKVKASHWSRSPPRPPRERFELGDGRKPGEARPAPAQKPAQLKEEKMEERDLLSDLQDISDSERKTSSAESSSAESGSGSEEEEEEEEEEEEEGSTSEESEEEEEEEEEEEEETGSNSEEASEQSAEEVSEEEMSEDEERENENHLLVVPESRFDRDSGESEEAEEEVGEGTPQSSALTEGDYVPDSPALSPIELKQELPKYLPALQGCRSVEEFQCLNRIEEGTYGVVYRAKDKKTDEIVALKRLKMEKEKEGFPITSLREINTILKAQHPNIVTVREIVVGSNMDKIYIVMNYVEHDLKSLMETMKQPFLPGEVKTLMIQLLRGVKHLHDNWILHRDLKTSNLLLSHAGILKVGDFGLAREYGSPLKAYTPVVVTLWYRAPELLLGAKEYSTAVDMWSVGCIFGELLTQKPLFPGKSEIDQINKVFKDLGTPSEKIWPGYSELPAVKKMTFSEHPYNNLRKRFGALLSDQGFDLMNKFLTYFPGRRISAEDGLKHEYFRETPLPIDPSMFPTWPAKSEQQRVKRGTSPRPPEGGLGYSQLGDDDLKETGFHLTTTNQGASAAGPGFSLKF
QUANTITY_MEASURED: IC50

Briefly, IC50 measured for CC[C@@H]1CN(C(=O)NCC(F)(F)F)C[C@@H]1c1cnc2cnc3[nH]ccc3n12 : > 10 µM

* * *

Test: Inhibition of ABL (unknown origin) by TR-FRET assay
Design: species or system Homo sapiens
QUANTITY_MEASURED: IC50

Briefly, IC50 measured for CC[C@@H]1CN(C(=O)NCC(F)(F)F)C[C@@H]1c1cnc2cnc3[nH]ccc3n12 : > 10 µM

* * *

Target: AMP-activated protein kinase, AMPK
Assay: Inhibition of AMPK (unknown origin) by TR-FRET assay
pIC50: −log10 of the molar value.
QUANTITY_MEASURED: pIC50

Briefly, pIC50 measured for CC[C@@H]1CN(C(=O)NCC(F)(F)F)C[C@@H]1c1cnc2cnc3[nH]ccc3n12 [UPADACITINIB] : < 5.35
